tested on: HEK293T cells; assay: MTT viability assay; assay type: cell-based, human; details: drug doses 1 to 100 µM, 16 h, normalized to 1% DMSO
Parameter: viability (MTT)

COc1cc(C(=O)O)ccc1NC(=O)[C@@H]1N[C@@H](CC(C)(C)C)[C@](C#N)(c2ccc(Cl)cc2F)[C@H]1c1cccc(Cl)c1F [Idasanutlin, reference compound]
decreased viability
COCCn1c2c([n+](Cc3cnccn3)c1C)C(=O)c1ccccc1C2=O [YM155, reference compound]
decreased viability
CC(=O)c1cc2c(o1)C(=O)c1ccccc1C2=O [Napabucasin, reference compound]
decreased viability

* * *

molecular target: recombinant PRL-1 (Homo sapiens, UniProt Q93096); construct: 6xHis (N, cleaved yes); made in house; host or cells: E. coli One Shot BL21 Star; experiment: In vitro phosphatase assay (DiFMUP hydrolysis), PRL-1; assay type: biochemical; settings: FDA-approved drug screen; activity compared to DMSO
Sequence (Q93096 whole entry): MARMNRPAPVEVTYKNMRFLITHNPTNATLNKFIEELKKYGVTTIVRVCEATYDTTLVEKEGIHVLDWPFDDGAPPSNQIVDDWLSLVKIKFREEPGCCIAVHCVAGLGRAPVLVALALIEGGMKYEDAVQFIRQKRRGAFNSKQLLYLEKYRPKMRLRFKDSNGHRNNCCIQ
Structures can show the parent of a compound that is named as a salt.
Parameter: % Phosphatase Activity (compared to DMSO) PRL-1 (%)
# output: bare number, implied unit %

CN(C)CCc1c[nH]c2ccc(C[C@H]3COC(=O)N3)cc12
111
CCCC(CCC)C(=O)[O-].[Na+]
86
O=C(O)CCCc1ccccc1 [Sodium Phenylbutyrate]
103
COc1cc2nc(N3CCN(C(=O)C4CCCO4)CC3)nc(N)c2cc1OC (centres unmarked) [Terazosin HCl]
510

Read the next record carefully.
**Query** Which % Phosphatase Activity (compared to DMSO) PRL-1 value belongs to CC(C)(C)C(=O)Oc1ccc(S(=O)(=O)Nc2ccccc2C(=O)NCC(=O)O)cc1 [Sivelestat sodium] ?
**Result** 89

* * *

molecular target: recombinant PRL-3 (Homo sapiens, UniProt O75365); construct: 6xHis (N, cleaved yes); made in house; host or cells: E. coli One Shot BL21 Star; assay: In vitro phosphatase assay (DiFMUP hydrolysis), PRL-3; type: biochemical; conditions: FDA-approved drug screen; compared to DMSO
Sequence (O75365 whole entry): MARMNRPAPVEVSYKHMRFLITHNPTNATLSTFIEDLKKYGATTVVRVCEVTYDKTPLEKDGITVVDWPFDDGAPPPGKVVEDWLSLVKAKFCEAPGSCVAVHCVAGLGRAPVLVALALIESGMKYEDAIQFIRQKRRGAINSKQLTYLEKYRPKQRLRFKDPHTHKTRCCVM
Parameter: % Phosphatase Activity (compared to DMSO) PRL-3 (%)
# output: bare number, implied unit %

Please review the entries below; each comes with its answer.
CNCC(=O)c1ccc(O)c(O)c1.Cl [Adrenalone HCl]
72
CN1CC2c3ccccc3Oc3ccc(Cl)cc3C2C1 (centres unmarked)
79
CC(=O)Oc1ccccc1C(=O)O
102

**Query** Which % Phosphatase Activity (compared to DMSO) PRL-3 value belongs to CCOc1cc(CC(=O)N[C@@H](CC(C)C)c2ccccc2N2CCCCC2)ccc1C(=O)O [Repaglinide] ?
**Result** 87

**Query** Which % Phosphatase Activity (compared to DMSO) PRL-3 value belongs to `O=S(=O)(O)CCS` ?
**Result** 102

**Query** Which % Phosphatase Activity (compared to DMSO) PRL-3 value belongs to `C#C[C@]1(O)CC[C@H]2[C@@H]3CCC4=CCCC[C@@H]4[C@H]3C(=C)C[C@@]21CC` ?
**Result** 84

* * *

target: recombinant PRL-3 (Homo sapiens, UniProt O75365); construct: 6xHis (N, cleaved yes); made in house; host or cells: E. coli One Shot BL21 Star; assay: In vitro phosphatase assay (DiFMUP hydrolysis), PRL-3; assay type: biochemical; settings: FDA-approved drug screen; compared to DMSO
Listed molecules paired with reported % Phosphatase Activity (compared to DMSO) PRL-3
# output: bare number, implied unit %

COc1ccccc1N1CCN(CC(O)COc2cccc3ccccc23)CC1 (stereo not shown)
94
CNC(=O)[C@H](Cc1ccccc1)NC(=O)[C@H](CC(C)C)[C@H](CSc1cccs1)C(=O)NO
89
Cc1cc(Nc2cc(CN3CCOCC3)c3nc(C)c(Cc4ccc(Cl)cc4F)n3n2)n[nH]1
95

Read the next record carefully.
**Query** Request: % Phosphatase Activity (compared to DMSO) PRL-3, test system recombinant PRL-3 (Homo sapiens, UniProt O75365), entry `CC(C)(Oc1ccc(C(=O)c2ccc(Cl)cc2)cc1)C(=O)O`
**Result** 109
